test system: lung cancer cell line A549; experiment: In vitro cell inhibition assay (crystal violet), lung cancer A549; format: cell-based, human; details: A549, 2.5 μM
Property: Inhibition rate on human cancer cells; scope: individual molecules
Number in %, nothing else.

# example entries with known answers
{"columns": ["MOLECULE", "Inhibition rate on human cancer cells, %"],
 "data": [
  ["COC=C(C(=O)OC)c1ccccc1COc1ccc2c(-c3ccc(OC)cc3)cc(=O)oc2c1", 100],
  ["COC=C(C(=O)OC)c1ccccc1COc1ccc2c(-c3cccc(Cl)c3)cc(=O)oc2c1", 100]
]}

We next turn to a different molecule, shown below.
Measured on lung cancer cell line A549, `COC=C(C(=O)OC)c1ccccc1COc1ccc2c(-c3ccccc3)cc(=O)oc2c1` has a documented Inhibition rate on human cancer cells of 100

Cited source: patent US9895346B2
